Test system: SNB-19 CNS
test_protocol: NCI tumour cell line growth inhibition, 48 h
measurement_label: TGI

What value of TGI has been recorded for this entry: N[C@@H]1C(=O)N2C(C(=O)OC(c3ccccc3)c3ccccc3)=C(CCl)CS[C@H]12
> 100 µM

What value of TGI has been recorded for this entry: NC1=NC(c2ccc(Cl)cc2)N(c2ccc(S(N)(=O)=O)cc2)C(N)=N1 (stereo unspecified)
> 100 µM

What value of TGI has been recorded for this entry: Fc1ccc(N=C/C=C/Nc2ccc(F)cc2)cc1
26.9 µM

What value of TGI has been recorded for this entry: O=C(O)C[C@@H]1[C@@H](O)[C@@H](O)CN2C(=O)c3ccccc3[C@H]12
> 100 µM

What value of TGI has been recorded for this entry: Brc1ccc2c3c1[C@H]1O[C@H]1c1cccc(c1-3)[C@@H]1O[C@H]21
34.3 µM

What value of TGI has been recorded for this entry: CSc1cc(-c2ccccn2)nc(-c2ccccn2)c1
> 50.5 µM

What value of TGI has been recorded for this entry: Cc1ccc(NC(=O)C(Cc2c[nH]c3ccccc23)NC(=O)Oc2ccccc2)cc1C (stereo unspecified)
> 100 µM

What value of TGI has been recorded for this entry: CCCCCCCCCCCCCCCCNCCCN(C)CCCN
31.5 µM

What value of TGI has been recorded for this entry: COC(=O)C1OC2(CCCC3CC32)O[C@H]1C(=O)OC (stereo partly specified)
> 100 µM

What value of TGI has been recorded for this entry: O=C1Nc2ccccc2Cn2c1cc1oc(-c3ccccc3)cc12
66.5 µM

What value of TGI has been recorded for this entry: Nc1cc(O)ccc1N=Nc1ccc(-c2nc3ccccc3[nH]2)cc1
> 100 µM

----------
Parameter TGI: see the listing below.
System: SNB-19 CNS
test_protocol: NCI tumour cell line growth inhibition, 48 h

// known answers, use as guide
molecular_string	measurement_label	experimental_result
CCN(Cc1ccc(F)cc1)c1ccc(CO)c(C)c1	TGI	> 100 µM
Cc1cc(S(=O)(=O)/N=C/N(C)C)c(SC(=O)c2ccc(Cl)cc2)cc1Cl	TGI	> 100 µM
C=C1C(=O)O[C@H]2[C@H]1CC/C(COC(=O)CCSCCC(=O)OC/C1=C/CC[C@@]3(C)O[C@H]3[C@H]3OC(=O)C(=C)[C@@H]3CC1)=C\CC[C@@]1(C)O[C@@H]21	TGI	7.29 µM
COc1cccc(-c2nn(-c3ccccc3)cc2-c2ccnc(NCCNC(=O)Nc3cccc(C(F)(F)F)c3)c2)c1	TGI	11.9 µM

Next molecule, TGI to be filled in.
What value of TGI has been recorded for this entry: CCN(CC)C(=S)Nc1ccc(-c2cc3ccc(O)cc3oc2=O)cc1
> 100 µM

----------
System: HOP-92 NSCLC
test_protocol: NCI tumour cell line growth inhibition, 48 h
measurement_label: TGI (µM)
Give your result in µM as a bare value.

// known answers, use as guide
molecule	unit_label	TGI
COc1cccc2c1-c1c(c3ccc([N+](=O)[O-])cc3c(=O)n1CCCN)C2=O	µM	13.3
CN(Cc1cccc(F)c1)c1ccc(CO)c(Cl)c1	µM	28.1
COc1cccc(-c2ccc3c(c2)C2CCN(Cc4ccccc4)C3C2)c1 (configuration not stated)	µM	20.2

What measured TGI is associated with O=C1c2ccccc2C(=O)c2c(O)c(NCCCNCCO)cc(O)c21 on HOP-92 NSCLC?
31.7

What measured TGI is associated with CCOC(=O)c1sc2nc(SC)nc3c2c1NCN3c1ccc(F)c(F)c1 on HOP-92 NSCLC?
83

Entry source: PubChem BioAssay (NCI)
